Target: T1, recombinant human TROP2 extracellular domain (aa 1-274) comprising His tag (human, UniProt P09758 27-274)
T1 construct: Used here for all assays on recombinant human TROP2 (ELISA, immunoblot, SPR, crystal), although only some of them name the catalogue number; also called human recombinant TROP2; recombinant human TROP2 protein; not shown: His tag
T1 sequence: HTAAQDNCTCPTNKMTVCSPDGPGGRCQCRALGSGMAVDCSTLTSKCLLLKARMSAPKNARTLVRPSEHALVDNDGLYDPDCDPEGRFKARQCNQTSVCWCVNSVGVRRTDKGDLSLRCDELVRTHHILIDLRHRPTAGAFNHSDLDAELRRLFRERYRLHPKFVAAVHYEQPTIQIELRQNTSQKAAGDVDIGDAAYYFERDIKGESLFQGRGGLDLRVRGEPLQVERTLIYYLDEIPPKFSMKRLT
Assay: ELISA, coated rh TROP2
Examples of binders with documented EC50% to KD005 follow.

A selection of reference data follows.
{"columns": ["Binder", "Observation Type", "Result"],
 "data": [
  ["KD050 (antibody, V domains shown, KD005 humanized variant) VH: QVQLQESGGGLVQPGGSLRLSCAASGFTFSGSDMSWVRQAPGKGPEWVSYITSGGTTYYPDTVKGRFTISRDNSKNTLYLQMNSLKPDDTAVYRCAKSRLTDSHYVEDAWGQGTQVTVSS", "EC50% to KD005", "1.25 ratio to KD005"],
  ["KD061 (antibody, V domains shown, KD005 humanized variant) VH: QVQLQESGGGLIQPGGSLRLSCAASGFTFSGSDMSWVRQAPGKGLEWVSYITSGGTTYYADTVKGRFTISRDNSKNTLYLQMNSLRADDTAVYRCAKSRLTDSHYVEDAWGQGTLVTVSS", "EC50% to KD005", "1.5 ratio to KD005"]
]}

The binder KD056 (antibody, V domains shown, KD005 humanized variant) VH: QVQLVESGGGLIQPGGSLRLSCAASGFTFSGSDMSWVRQAPGKGLEWVSYITSGGTTYYADTVKGRFTISRDNSKNTLYLQMNSLRAEDTAVYRCAKSRLTDSHYVEDAWGQGTLVTVSS showed EC50% to KD005 equal to 1.12 ratio to KD005

The binder KD045 (antibody, V domains shown, KD005 humanized variant) VH: EVQLLESGGGLVQPGGSLRLSCAASGFTFSGSDMSWVRQAPGKGLEWVSYITSGGTTYYADTVKGRFTISRDNSKNTLYLQMNSLRAEDTAVYRCAKSRLTDSHYVEDAWGQGTLVTVSS showed EC50% to KD005 equal to 1.12 ratio to KD005

The binder KD053 (antibody, V domains shown, KD005 humanized variant) VH: QVQLQESGGGLIQPGGSLRLSCAASGFTFSGSDMSWVRQAPGKGPEWVSYITSGGTTYYPDTVKGRFTISRDNSKNTLYLQMNSLRADDTALYRCAKSRLTDSHYVEDAWGQGTLVTVSS showed EC50% to KD005 equal to 1.25 ratio to KD005

The binder KD044 (antibody, V domains shown, KD005 humanized variant) VH: EVQLLESGGGLVQPGGSLRLSCAASGFTFSGSDMSWVRQAPGKGLEWVSYITSGGTTYYADTVKGRFTISRDNSKNTLYLQMNSLRAEDTAVYYCAKSRLTDSHYVEDAWGQGTLVTVSS showed EC50% to KD005 equal to 1 ratio to KD005

The binder KD051 (antibody, V domains shown, KD005 humanized variant) VH: QVQLQESGGGLVQPGGSLRLSCAASGFTFSGSDMSWVRQAPGKGPEWVSYITSGGTTYYPDTVKGRFTISRDNAKNTLYLQMNSLKPDDTALYRCAKSRLTDSHYVEDAWGQGTQVTVSS showed EC50% to KD005 equal to 1.5 ratio to KD005

The binder KD057 (antibody, V domains shown, KD005 humanized variant) VH: QVQLQESGGGLIQPGGSLRLSCAASGFTFSGSDMSWVRQAPGKGLEWVSVITSGGTTYYADTVKGRFTISRDNSKNTLYLQMNSLRAEDTAVYRCAKSRLTDSHYVEDAWGQGTLVTVSS showed EC50% to KD005 equal to 1.12 ratio to KD005
